- System: L. donovani HU3 strain in mouse peritoneal macrophages
- Measurement notes: Assay for proliferation of Leishmania parasites in mouse peritoneal macrophages
- Format: cell-based, Leishmania donovani
- Run parameters: Leishmania donovani, Peritoneal macrophage, read-out: L. donavani Macrophage EC50
One threshold, 3 µM, splits the recorded EC50 values: lower ones are 1 (yes), equal or higher ones are 0 (no).

Here are 5 molecules together with their reported answers.
>>> label_value("CN(C(=O)OC(C)(C)C)c1ccc(-c2cnc3nc(-c4cc(NC(=O)N5CCCC5)ccc4Cl)[nH]c3c2)cc1 [Compound 308]")
"1 (yes)"
>>> label_value("O=C(Nc1ccc(Cl)c(-c2nc3ncc(-c4ccc(OCCN5CCCCC5)cc4)cc3[nH]2)c1)c1ccco1 [Compound 21]")
"1 (yes)"
>>> label_value("Cc1c[nH]nc1-c1cnc2nc(-c3cc(NC(=O)c4ccco4)ccc3Cl)[nH]c2c1 [Compound 73]")
"0 (no)"
>>> label_value("CC(C)OC(=O)Nc1ccc(-c2cnc3nc(-c4cc(NC(=O)c5ccco5)ccc4Cl)[nH]c3c2)cc1 [Compound 31]")
"1 (yes)"
>>> label_value("CNc1ccc(-c2cnc3nc(-c4cc(NC(=O)C5CCCC5)ccc4Cl)[nH]c3c2)cc1 [Compound 346]")
"1 (yes)"

Task: Record Cc1cnc2nc(-c3cc(Nc4ccc(N5CCOCC5)cn4)ccc3Cl)[nH]c2c1 [Compound 260] : is its EC50 strictly below 3 µM?
Result: 0 (no)

Task: Here's an entry: Cc1cnc2nc(-c3cc(NC(=O)C4CCC4)ccc3Cl)[nH]c2c1 [Compound 118] . Is its EC50 below 3 µM?
Result: 0 (no)

Task: Say whether its EC50 is strictly beneath 3 µM. Entry: Cc1cnc2nc(-c3cc(NC(=O)Cc4nnn[nH]4)ccc3Cl)[nH]c2c1 [Compound 169]
Result: 0 (no)

====

- Test system: Leishmania donovani axenic amastigote parasites
- Measurement notes: Leishmania donovani axenic amastigote proliferation assay
- Type: cell-based
- Run parameters: axenic amastigotes in vitro, read-out: L. donovani amastigotes EC50
pEC50: −log10 of the molar value.
Experimental readout: pEC50

Reference set (3 entries):
>>> result("Cc1cnc2nc(-c3cc(NC(=O)c4ccc(OC(F)(F)F)cc4)ccc3Cl)[nH]c2c1 [Compound 210]")
"< 4.66"
>>> result("Cc1cnc2nc(-c3cc(NC(=O)NCCCCCCN(C)C)ccc3Cl)[nH]c2c1 [Compound 228]")
"< 4.60"
>>> result("CC(=O)Nc1ccc(-c2cnc3nc(-c4cc(NC(=O)Nc5ccc(C(F)(F)F)cc5)ccc4F)oc3c2)cc1 [Compound 401]")
5.33

Now for another entry.
Documented pEC50 of Cc1cnc2nc(-c3cc(Nc4nccc5c4CCN(Cc4ccccc4)C5)ccc3Cl)[nH]c2c1 [Compound 265] : < 4.60

====

- Test system: Trypanosoma cruzi amastigotes (Tulahuen strain) cultured in 3T3 fibroblast cells
- Measurement notes: Assay for proliferation of kinetoplastid parasite Trypanosoma cruzi
- Assay type: cell-based
- Run parameters: 144 h, Tulahuen amastigotes in 3T3 fibroblast cells, 6 day incubation, read-out: T cruzi EC50
Experimental readout: EC50 (nM)
The answer is to be given in nM; state only the numeric part.

Example entries begin here.
>>> measured_number("CCN(C)C(=O)Nc1ccc(Cl)c(-c2nc3ncc(C)cc3[nH]2)c1 [Compound 242]")
1380
>>> measured_number("Cc1cnc2nc(-c3cc(NC(=O)c4cc(Cl)ccc4Cl)ccc3Cl)[nH]c2c1 [Compound 98]")
1180
>>> measured_number("Cc1cnc2nc(-c3cc(NC(=O)c4ccccn4)ccc3Cl)[nH]c2c1 [Compound 83]")
1300
>>> measured_number("O=C(Cc1cccc(Cl)c1)Nc1ccc(Cl)c(-c2nc3ncc(C(F)(F)F)cc3[nH]2)c1 [Compound 280]")
3400
>>> measured_number("Cc1cnc2nc(-c3cc(NC(=O)C4CCCCO4)ccc3Cl)[nH]c2c1 (stereo not drawn) [Compound 131]")
6800

Lookup result for Cc1cnc2nc(-c3cc(NC(=O)c4ccccc4N(C)C)ccc3Cl)[nH]c2c1 [Compound 150] ; measured EC50: 8900

Cc1cnc2nc(-c3cc(NC(=O)c4cccc(N5CCOCC5)c4)ccc3Cl)[nH]c2c1 [Compound 195] yielded EC50 of 8800
